The measured values listed here are drawn from the RNAGym collection of RNA variant scans (doi:10.7554/elife.90254).

B1: OR4K15 (parent)
chain: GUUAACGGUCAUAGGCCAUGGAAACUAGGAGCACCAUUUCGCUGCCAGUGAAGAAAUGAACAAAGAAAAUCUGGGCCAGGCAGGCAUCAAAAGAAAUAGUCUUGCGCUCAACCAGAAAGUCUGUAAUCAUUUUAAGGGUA

Variants of: B1
Assay: self-cleavage, relative activity (ratio to wild type); higher = more cleavage; in vitro, sequencing; the parent is a self-cleaving ribozyme
outcome_measure: self-cleavage
Give the figure by itself; no unit, no explanation.

Record excerpt, results attached:
variant_descriptor: A69G A135U
measured: 1.45
//
variant_descriptor: A52G U102A
measured: 0.89
//
variant_descriptor: A62G A92G
measured: 1.22
//
variant_descriptor: U3C A33G
measured: 0.79
//
variant_descriptor: U72C G80A
measured: 0.38
//
variant_descriptor: C85G A86U
measured: 0.31
//
variant_descriptor: G20A A91U
measured: 2.07
//
variant_descriptor: A22U A63G
measured: 1.45

**Q:** # input variant: A13G A118U ; wanted: its self-cleavage
**A:** 0.59

**Q:** Continue with A18C C71U
**A:** 0.35

**Q:** Can you check A51U U127C next?
**A:** 0.76
